Tested on: UniProtKB Q9S446
Experiment: Inhibition of Staphylococcus aureus SrtA with 24 residues truncated from N-terminus using Abz-LPATG-Dap as substrate
// values below are reported IC50
Provide the reading as a plain figure in µM.

Known results for compounds:
Smiles string: Clc1ccccc1-c1nn2c(-c3ccncc3)nnc2s1
Tested on: UniProtKB Q9S446
Reported value: 37.7
--
Smiles string: O=S(=O)(O)c1cccc(-c2nn3c(-c4ccncc4)nnc3s2)c1
Tested on: UniProtKB Q9S446
Reported value: 9.3

Now for another entry.
Request: Reported IC50, compound c1cc(-c2nnc3sc(-c4ccc5[nH]cnc5c4)nn23)ccn1 : ____
Result: 17

###

// values below are reported pIC50
Tested on: UniProtKB Q9S446
Sequence (Q9S446 whole entry): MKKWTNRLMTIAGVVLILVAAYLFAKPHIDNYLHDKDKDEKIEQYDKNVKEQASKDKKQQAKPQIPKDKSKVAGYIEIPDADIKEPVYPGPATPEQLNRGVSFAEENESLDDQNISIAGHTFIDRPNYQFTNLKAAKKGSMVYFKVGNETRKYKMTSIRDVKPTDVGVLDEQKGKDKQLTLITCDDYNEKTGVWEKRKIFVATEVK
Experiment: Inhibition of C-terminal 6His-tagged recombinant Staphylococcus aureus SrtA with 1 to 59 residues truncated from N-terminus expressed in Escherichia coli BL21 (DE3) using dabcyl-QALPETGEE-edans as substrate preincubated for 1 hr followed by substrate addition and measured for 1 hr by FRET assay
Would you please state pIC50, meaning minus log10 of the concentration in mol/L, as a bare number?

Known results for compounds:
Smiles string: CCOC(=O)/C(=N\Nc1c(F)cccc1F)C(=O)c1cc(C)nn1CC
Measured attribute: pIC50
Reported value: 4.12

Smiles string: CC(=O)/C(=N/Nc1ccc(Cl)c(Cl)c1)C(=O)O
Measured attribute: pIC50
Reported value: 4.30

Smiles string: Cc1cc(C(=O)/C(=N/Nc2c(F)cccc2F)C(=O)O)no1
Measured attribute: pIC50
Reported value: 4.12

Smiles string: CC(=O)/C(=N/Nc1ccccc1)C(=O)O
Measured attribute: pIC50
Reported value: 4.10

Now for another entry.
Request: Reported pIC50, compound CC(=O)/C(=N/Nc1ccc([N+](=O)[O-])cc1)C(=O)O : ____
Result: 4.24

###

Tested on: Sortase A (Staphylococcus aureus, UniProt Q9S446)
Experiment: Inhibition of Staphylococcus aureus ATCC 6538p SrtA using dabcyl-LPETG-edans as substrate incubated for 1 hr by fluorometric analysis
Measured attribute: IC50 (µM)
Provide the reading as a plain figure in µM.

Request: Reported IC50, compound C[C@H]1CC[C@H]2[C@@H](C=C[C@@](C)(O)[C@]2(C)C(=O)CCO)C1 : ____
Result: 146

###

Tested on: Sortase A (Staphylococcus aureus)
Experiment: Inhibition of Staphylococcus aureus SrtA transpeptidation activity
Measured attribute: pIC50
Would you please state pIC50, meaning minus log10 of the concentration in mol/L, as a bare number?

Request: Reported pIC50, compound O=C(/C=C/c1ccc(O)cc1)O[C@H]1[C@@H](O)[C@H](O)C[C@](O)(C(=O)O)[C@H]1O : ____
Result: 3.79

###

Tested on: UniProtKB Q9S446
Sequence (Q9S446 whole entry): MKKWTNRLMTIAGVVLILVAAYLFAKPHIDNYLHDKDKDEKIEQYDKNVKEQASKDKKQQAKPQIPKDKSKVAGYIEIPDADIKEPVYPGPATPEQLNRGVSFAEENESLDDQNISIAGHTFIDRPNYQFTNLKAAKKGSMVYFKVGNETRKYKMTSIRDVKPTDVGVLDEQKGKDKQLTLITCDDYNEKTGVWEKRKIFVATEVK
Experiment: Inhibition of Staphylococcus aureus SrtA expressed in Escherichia coli by fluorescence based analysis
Measured attribute: IC50 (µM)
Provide the reading as a plain figure in µM.

Request: Notebook: pull reported IC50 for UniProtKB Q9S446, entry Cc1cc2nc3[nH]c(=O)[nH]c(=O)c3nc2cc1C
Result: 198
